Source: patent US20060069132A1

Please provide measured Soybean plant response rating for the entries that follow.
Tested on: soybean
Assay Summary: Test C pre-/postemergence herbicide test
Assay type: in vivo, Glycine max
Test Parameters: Postemergence, 500 g ai/ha; scale 0 to 100
Number only, please.

Exercise: Given the compound `C=CCNC(=O)c1cccc(NC(=O)c2cc(C(C)(C)C)nn2CC)c1` , write its reported Soybean plant response rating.
Key: 100

Exercise: Given the compound `CCOC(=O)c1cc(NC(=O)c2cc(C(C)(C)C)nn2CC)ccc1OC` , write its reported Soybean plant response rating.
Key: 100

Exercise: Given the compound `CC(=NO)c1cccc(NC(=O)c2cc(C(C)(C)C)nn2CCF)c1` , write its reported Soybean plant response rating.
Key: 90

Exercise: Given the compound `CCCCOC(=O)c1cccc(NC(=O)c2cc(C(C)(C)C)nn2CC)c1` , write its reported Soybean plant response rating.
Key: 95

Exercise: Given the compound `CCn1nc(C(C)(C)C)cc1C(=O)Nc1cccc(SC(F)(F)F)c1` , write its reported Soybean plant response rating.
Key: 70

---

System: morningglory
Assay Summary: Test B pre-/postemergence herbicide test
Format: in vivo, Ipomoea coccinea
Test Parameters: preemergence, 125 g ai/ha; 0 to 100 scale, 0 is no effect, 100 is complete control
Procedure: […] At the same time, plants selected from these crop and weed species and also blackgrass (Alopecurus myosuroides Huds.), wheat (Triticum aestivum L.) and wild oat (Avena fatua L.) were treated with postemergence applications of test chemicals formulated in the same manner. […] Treated plants and controls were maintained in a greenhouse for 13 to 15 days, after which time all species were compared to controls and visually evaluated. […]
Endpoint Name: Plant response rating, Morningglory
Number only, please.

Exercise: Given the compound `CCn1nc(C(C)(C)C)cc1C(=O)Nc1cccc(C(N)=O)n1` , write its reported Plant response rating, Morningglory.
Key: 20

Exercise: Given the compound `CCOC(=O)c1ccc(F)c(NC(=O)c2cc(C(C)(C)C)nn2CC)c1` , write its reported Plant response rating, Morningglory.
Key: 10

Exercise: Given the compound `CCOC(=O)c1cccc(NC(=O)c2cc(C(C)(C)C)nn2CC)c1C` , write its reported Plant response rating, Morningglory.
Key: 0

Exercise: Given the compound `CCNC(=O)c1cc(NC(=O)c2cc(C(C)(C)C)nn2CC)ccc1C` , write its reported Plant response rating, Morningglory.
Key: 20

---

System: corn
Assay Summary: Test B pre-/postemergence herbicide test
Type: in vivo, Zea mays
Test Parameters: 500 g ai/ha; visual rating 0-100, 0 no effect, 100 complete control; preemergence
Please provide measured Plant response rating, Corn for the entries that follow.
Number only, please.

Exercise: Given the compound `CCNC(=O)c1cccc(NC(=O)c2cn(C(C)(C)C)nc2CC)c1` , write its reported Plant response rating, Corn.
Key: 40

Exercise: Given the compound `CCn1nc(C(C)(C)C)cc1C(=O)Nc1cccc(C(=O)OC(C)(C)C)c1` , write its reported Plant response rating, Corn.
Key: 0

Exercise: Given the compound `CCc1nc(C(C)(C)C)sc1C(=O)Nc1cccc(C(=O)NCC(F)(F)F)c1` , write its reported Plant response rating, Corn.
Key: 40

Exercise: Given the compound `CCON=C(C)c1cccc(NC(=O)c2cc(C(C)(C)C)nn2C)c1` , write its reported Plant response rating, Corn.
Key: 0

Exercise: Given the compound `CCOC(=O)c1cc(N(C(C)=O)C(=O)c2cc(C(C)(C)C)nn2CC)ccc1C` , write its reported Plant response rating, Corn.
Key: 0

Exercise: Given the compound `CC(=NO)c1cccc(NC(=O)c2sc(C(C)(C)C)nc2C)c1` , write its reported Plant response rating, Corn.
Key: 0

Exercise: Given the compound `CCc1nc(C(C)(C)C)sc1C(=O)Nc1cccc(C(=O)NCC(C)C)c1` , write its reported Plant response rating, Corn.
Key: 10

Exercise: Given the compound CCn1nc(C(C)(C)C)cc1C(=O)Nc1cccc([S+]([O-])C(F)(F)F)c1 (stereo not drawn) , write its reported Plant response rating, Corn.
Key: 0

Exercise: Given the compound `CC(C)NS(=O)(=O)c1cccc(NC(=O)c2cc(C(C)(C)C)nn2C)c1` , write its reported Plant response rating, Corn.
Key: 0

Exercise: Given the compound `CCNC(=O)c1cccc(NC(=O)c2sc(C(C)(C)C)nc2C)c1` , write its reported Plant response rating, Corn.
Key: 40

Exercise: Given the compound `CCn1nc(C(C)(C)C)cc1C(=O)Nc1cc(C(=O)N2CC=CC2)ccn1` , write its reported Plant response rating, Corn.
Key: 0

Exercise: Given the compound `C=Cn1nc(C(C)(C)C)cc1C(=O)Nc1cccc(C(C)=O)c1` , write its reported Plant response rating, Corn.
Key: 0
